- TEST_SYSTEM: HDAC1 (Homo sapiens, UniProt Q13547)
- Construct: purchased Enzo Life Sciences
- Sequence (Q13547 whole entry): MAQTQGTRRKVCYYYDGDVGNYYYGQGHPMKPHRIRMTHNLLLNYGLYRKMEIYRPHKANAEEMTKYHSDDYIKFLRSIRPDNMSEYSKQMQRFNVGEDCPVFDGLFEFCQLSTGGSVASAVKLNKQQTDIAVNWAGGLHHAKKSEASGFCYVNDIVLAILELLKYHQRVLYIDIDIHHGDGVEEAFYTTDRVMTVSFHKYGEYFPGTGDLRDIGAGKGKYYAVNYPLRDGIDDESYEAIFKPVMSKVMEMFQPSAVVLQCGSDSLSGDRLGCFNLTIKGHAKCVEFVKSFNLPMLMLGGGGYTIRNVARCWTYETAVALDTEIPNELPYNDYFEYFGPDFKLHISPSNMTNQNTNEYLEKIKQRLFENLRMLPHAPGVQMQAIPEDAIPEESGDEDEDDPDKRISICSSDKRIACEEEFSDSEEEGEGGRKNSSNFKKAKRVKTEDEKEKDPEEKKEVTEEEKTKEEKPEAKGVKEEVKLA
- TEST_METHOD_NOTES: HDAC Inhibition Screening Assay (FLUOR DE LYS Fluorimetric Drug Discovery Kit), HDAC1
- Assay type: biochemical
- CONDITION_LABEL: 50 μM compound
RECORDED_METRIC: inhibition at 50 µM

What measured inhibition at 50 µM is associated with COc1ccc(S(=O)(=O)NC2CCc3cc(/C=C/C(=O)Nc4ccc(F)cc4N)ccc32)cc1 (centres unmarked) on HDAC1 (Homo sapiens, UniProt Q13547)?
< 50%

Now consider a different compound.
Request: inhibition at 50 µM, test system HDAC1 (Homo sapiens, UniProt Q13547), entry COc1ccc2c(c1)CCC2NC(=O)CCCCCCC(=O)NO (centres unmarked)
> 80%

###

- TEST_SYSTEM: HDAC3 (Homo sapiens, UniProt O15379)
- Construct: purchased Enzo Life Sciences
- Sequence (O15379 whole entry): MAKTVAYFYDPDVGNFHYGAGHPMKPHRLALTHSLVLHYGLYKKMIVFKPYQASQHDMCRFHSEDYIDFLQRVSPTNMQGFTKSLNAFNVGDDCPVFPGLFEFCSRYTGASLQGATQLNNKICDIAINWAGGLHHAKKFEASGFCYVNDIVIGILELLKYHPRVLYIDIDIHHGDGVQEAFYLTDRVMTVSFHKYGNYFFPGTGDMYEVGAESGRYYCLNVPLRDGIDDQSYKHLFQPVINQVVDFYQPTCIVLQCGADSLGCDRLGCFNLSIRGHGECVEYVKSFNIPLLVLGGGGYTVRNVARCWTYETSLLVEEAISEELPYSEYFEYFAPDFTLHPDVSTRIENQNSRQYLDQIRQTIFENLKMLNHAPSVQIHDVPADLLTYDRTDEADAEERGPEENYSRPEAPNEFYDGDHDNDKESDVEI
- Sequence (O75376 395-489 partner limits assumed): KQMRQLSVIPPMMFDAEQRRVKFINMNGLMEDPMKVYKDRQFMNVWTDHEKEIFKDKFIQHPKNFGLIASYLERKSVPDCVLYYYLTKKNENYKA
- TEST_METHOD_NOTES: HDAC Inhibition Screening Assay (FLUOR DE LYS Fluorimetric Drug Discovery Kit), HDAC3
- Assay type: biochemical
- CONDITION_LABEL: 2 μM compound
RECORDED_METRIC: inhibition at 2 µM

Some molecules with known inhibition at 2 µM results, for comparison:
Request the reported inhibition at 2 µM associated with O=C(/C=C/c1ccc2c(c1)CCC2NCCc1ccc(F)cc1)NO (stereo not shown)
> 80%

Suppose we examine the molecule O=C(/C=C/c1ccc2c(c1)CCC2NC(=O)OCc1cc(C(F)(F)F)cc(C(F)(F)F)c1)NO (stereo not shown) ; what inhibition at 2 µM value has been reported?
< 50%

// inhibition at 2 µM lookup, key: O=C(/C=C/c1ccc2c(c1)CCC2OCc1cc(C(F)(F)F)cc(C(F)(F)F)c1)NO (stereo not shown)
< 50%

I am curious: what inhibition at 2 µM value has been reported for `O=C(/C=C/c1ccc(CNC(=O)COc2ccc3c(c2)CC/C(=C\c2cc(C(F)(F)F)cc(C(F)(F)F)c2)C3=O)cc1)NO` ?
< 50%

Given Nc1cc(F)ccc1NC(=O)/C=C/c1ccc2c(c1)CCC2NCCc1c[nH]c2ccccc12 (stereo not shown) , state its recorded inhibition at 2 µM.
> 80%

What inhibition at 2 µM value was documented for this molecule, Nc1cc(F)ccc1NC(=O)CCCCCCC(=O)NC1CCc2cc(/C=C/C(=O)Nc3cc(Cl)cc(Cl)c3)ccc21 (stereo not shown) ?
< 50%

Given the molecule `O=C(CCCCC(=O)Nc1ccc2c(c1)CC/C(=C\c1cc(C(F)(F)F)cc(C(F)(F)F)c1)C2=O)NO` , what is its reported inhibition at 2 µM?
< 50%

What does the data say about its inhibition at 2 µM? Entry: COc1ccc(CCNC2CCc3cc(/C=C/C(=O)NO)ccc32)cc1 (stereo not shown)
> 80%

***
Can you share its inhibition at 2 µM? I mean this molecule: O=C(CCCCCCC(=O)Nc1ccc2c(c1)CCC(Cc1cc(C(F)(F)F)cc(C(F)(F)F)c1)C2=O)NO (stereo not shown)
< 50%

Give the measured inhibition at 2 µM of O=C(/C=C/c1ccc2c(c1)CCC2NCCc1cc(Cl)cc(Cl)c1)NO (stereo not shown) .
> 80%

What value of measured inhibition at 2 µM is listed for CN(C(=O)OCc1cc(C(F)(F)F)cc(C(F)(F)F)c1)C1CCc2ccc(/C=C/C(=O)NO)cc21 (stereo not shown) ?
< 50%

Could you tell me which inhibition at 2 µM is on file for Nc1cc(F)ccc1NC(=O)/C=C/c1ccc2c(c1)CCC2NC(=O)c1cc(C(F)(F)F)cc(C(F)(F)F)c1 (stereo not shown) ?
< 50%

Field request: inhibition at 2 µM | item: CN(C)c1ccc(C(=O)NC2CCc3cc(/C=C/C(=O)NO)ccc32)cc1 (stereo not shown)
> 80%

Values were extracted from patent US12162820B2.
